Data origin: ChEMBL document CHEMBL1255438

Test system: Staphylococcus
Assay: Antimicrobial activity against oxacillin-susceptible coagulase-negative Staphylococcus aureus by CLSI method
Format: functional
Each entry below carries its recorded MIC50.
Please respond with the number in µg/mL and leave the unit unwritten.

smiles-string: CC(=O)NC[C@H]1CN(c2ccc(N3CCOCC3)c(F)c2)C(=O)O1
assay-system: Staphylococcus
MIC50 / µg/mL: 1
--
smiles-string: CN[C@H](CC(C)C)C(=O)N[C@H]1C(=O)N[C@@H](CC(N)=O)C(=O)N[C@H]2C(=O)N[C@H]3C(=O)N[C@H](C(=O)N[C@H](C(=O)O)c4cc(O)cc(O)c4-c4cc3ccc4O)[C@H](O)c3ccc(c(Cl)c3)Oc3cc2cc(c3O[C@@H]2O[C@H](CO)[C@@H](O)[C@H](O)[C@H]2O[C@H]2C[C@](C)(N)[C@H](O)[C@H](C)O2)Oc2ccc(cc2Cl)[C@H]1O
assay-system: Staphylococcus
MIC50 / µg/mL: 2
--
smiles-string: CCCCCCCCCC(=O)N[C@@H](Cc1c[nH]c2ccccc12)C(=O)N[C@H](CC(N)=O)C(=O)N[C@@H](CC(=O)O)C(=O)N[C@@H]1C(=O)NCC(=O)N[C@@H](CCCN)C(=O)N[C@@H](CC(=O)O)C(=O)N[C@H](C)C(=O)N[C@@H](CC(=O)O)C(=O)NCC(=O)N[C@H](CO)C(=O)N[C@@H]([C@H](C)CC(=O)O)C(=O)N[C@@H](CC(=O)c2ccccc2N)C(=O)O[C@@H]1C
assay-system: Staphylococcus
MIC50 / µg/mL: 0.25
--
smiles-string: CC(=O)N[C@@H]1[C@H](Oc2c3cc4cc2Oc2ccc(cc2Cl)[C@@H](O[C@@H]2O[C@@H](CO)[C@@H](O)[C@H](O)[C@@H]2NC(C)=O)[C@@H]2NC(=O)[C@H](NC(=O)[C@@H]4NC(=O)[C@H]4NC(=O)[C@@H](Cc5ccc(c(Cl)c5)O3)NC(=O)[C@H](N)c3ccc(O)c(c3)Oc3cc(O)cc4c3)c3ccc(O)c(c3)-c3c(O[C@H]4O[C@H](CO)[C@@H](O)[C@@H](O)[C@@H]4O)cc(O)cc3[C@@H](C(=O)O)NC2=O)O[C@@H](CO)[C@@H](O)[C@@H]1O
assay-system: Staphylococcus
MIC50 / µg/mL: 2

Kindly consider the entry below.
MIC50 reading for Cn1nnc(-c2ccc(-c3ccc(N4C[C@H](CO)OC4=O)cc3F)cn2)n1 : 0.25

====

Tested on: Staphylococcus aureus
Test: Antimicrobial activity against oxacillin-susceptible Staphylococcus aureus by CLSI method
Format: functional
outcome-measure: MIC90 (µg/mL)
Write the value in µg/mL as a bare number.

MIC90 in this record for CC(=O)N[C@@H]1[C@H](Oc2c3cc4cc2Oc2ccc(cc2Cl)[C@@H](O[C@@H]2O[C@@H](CO)[C@@H](O)[C@H](O)[C@@H]2NC(C)=O)[C@@H]2NC(=O)[C@H](NC(=O)[C@@H]4NC(=O)[C@H]4NC(=O)[C@@H](Cc5ccc(c(Cl)c5)O3)NC(=O)[C@H](N)c3ccc(O)c(c3)Oc3cc(O)cc4c3)c3ccc(O)c(c3)-c3c(O[C@H]4O[C@H](CO)[C@@H](O)[C@@H](O)[C@@H]4O)cc(O)cc3[C@@H](C(=O)O)NC2=O)O[C@@H](CO)[C@@H](O)[C@@H]1O : 1
